tested on: CCRF-CEM leukemia; test: NCI tumour cell line growth inhibition, 48 h
Where a SMILES comes first, the peptide text is derived from it.
endpoint_name: TGI

Worked examples, 3 compounds total:
compound: COC(=O)n1c(=O)n(-c2ccccc2)c(=O)n1C(=O)Nc1ccccc1
TGI: > 100 µM
//
compound: N#CCN1CCOCCOCCN(CC#N)CCOCCOCC1
TGI: > 100 µM
//
compound: Nc1ccn(C2CC(O)C(CO)O2)c(=O)n1 (stereo not given)
TGI: > 5000 µM

[Q] I am curious: what TGI value has been reported for CC(=O)NC(CS)C(=O)NC(CO)C(=O)NC(CO)C(=O)NC(Cc1c[nH]c2ccccc12)C(=O)N1CCCC1C(=O)NC(CO)C(=O)NC(Cc1c[nH]c2ccccc12)C(=O)NC(Cc1c[nH]cn1)C(=O)NC(CO)C(=O)NC(Cc1c[nH]c2ccccc12)C(=O)NCC(=O)NCC(=O)NC(CC(=O)O)C(=O)NC(CCC(N)=O)C(=O)NC(CCCCN)C(=O)NC(Cc1ccccc1)C(=O)NC(CCCNC(=N)N)C(=O)NC(CCCCN)C(N)=O (stereo not given) (Ac-CSSWPSWHSWGGDQKFRK-NH2; configuration not given here) ?
[A] > 25 µM

[Q] Also, `O=C(NC(=S)NNC(=S)NNc1ccccc1)c1ccccc1` please.
[A] > 100 µM

----------
test system: UACC-62 melanoma; test: NCI tumour cell line growth inhibition, 48 h
TGI: recorded values
Field format: number, assumed µM, no unit text.

[Q] What measured TGI goes with `CC#Cc1cc2c(cc1O)CC[C@@H]1[C@@H]2CC[C@]2(C)[C@@H](O)CC[C@@H]12` ?
[A] 16.7

[Q] What about this compound? `O=C(NNc1ccccc1)OCc1ccccc1`
[A] 8.43

[Q] Same question for CC(C)(C)OC(=O)NC(Cc1ccc(OCc2ccccc2)cn1)C(=O)NCc1ccccc1 (configuration not stated) please.
[A] 32.5

[Q] Item: `O=C(O)c1nc2ccccc2nc1Nc1ccc(F)cc1`
[A] 77.6

[Q] NC1CC(=O)c2csc(Cl)c21 (configuration not stated) ?
[A] 24.7

----------
system: RPMI-8226 leukemia; assay: NCI tumour cell line growth inhibition, 48 h; in the data active = GI50 below about 0.43 µM; inactive = the rest
Reply using exactly one outcome from active, inactive

compound: ClC1=NC(Cl)C(Cl)=N/C1=N\c1ncn[nH]1 (stereo not given)
category_label: inactive

[Q] Could you check what this test reported for `COc1cc2nc(N3CCCC3)nc(Nc3ccccc3)c2cc1OC` ?
[A] inactive

[Q] Try this compound too: `O=C(NC(=S)NNC(=S)NNc1ccccc1)c1ccccc1`
[A] inactive

[Q] What about this compound? `O=C1c2cc3c(cc2[C@@H]2[C@H]1c1ccc([N+](=O)[O-])cc1C(=O)N2CCCCl)OCO3`
[A] active

[Q] Request: `O=c1oc2ccc(Cl)cc2c(=O)n1-c1cc(C(F)(F)F)cc(C(F)(F)F)c1`
[A] active

----------
tested on: NCI-H226 lung; test: NCI tumour cell line growth inhibition, 48 h
endpoint_name: TGI

[Q] TGI for `c1ccc2sc(SCN(C3CCCCC3)C3CCCCC3)nc2c1` ?
[A] > 100 µM

----------
system: OVCAR-8 ovarian; test: NCI tumour cell line growth inhibition, 48 h
endpoint_name: TGI

smiles_str: O=C1Oc2ccccc2C(=O)/C1=C/N1C(=O)N/C(=C\c2cccc(O)c2)C1=O
system: OVCAR-8 ovarian
TGI: > 100 µM
//
smiles_str: Fc1ccc(-c2nnc3sc(COc4ccccc4Cl)nn23)cc1Cl
system: OVCAR-8 ovarian
TGI: > 100 µM

# ---- query compound ----
[Q] Please give the measured TGI for this compound: `NNc1ccccc1Cl`
[A] > 100 µM
